Target: T1, IGF-II (amino acids 1-67) (human, UniProt P01344 25-91)
T1 construct: mature; also called IGF-II (67aa); IGF2
T1 sequence (P01344 25-91): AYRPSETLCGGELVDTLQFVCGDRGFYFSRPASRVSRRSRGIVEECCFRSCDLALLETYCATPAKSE
Test: SPR (Flexchip), Fab, second of duplicate; unit inferred
measurement name: Kd (nM)
Give the number; nM is assumed, so skip it.

binder	unit descriptor	Kd
M0070-H08 Fab (Fab, V domains shown, Soluble Fab from phage display; also called M0070-H08(R0032-A07)) VH: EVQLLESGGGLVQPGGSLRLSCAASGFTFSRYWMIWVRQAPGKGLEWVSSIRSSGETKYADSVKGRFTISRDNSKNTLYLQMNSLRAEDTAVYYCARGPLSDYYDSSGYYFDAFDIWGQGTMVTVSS VL: DIQMTQSPSSLSASAGDRVTITCRASQSISSYLNWYQQKPGKAPNLLIYTTSNLQGGVPSRFSGSGSGTDFTLTISSLQPEDFATYYCQQGYSFPLTFGGGTKVEIKR	nM	1.1

Now examine the next entry.
Report measured Kd; entry is M0072-G06 Fab (Fab, V domains shown, Soluble Fab from phage display; also called M0072-G06(R0032-C05)) VH: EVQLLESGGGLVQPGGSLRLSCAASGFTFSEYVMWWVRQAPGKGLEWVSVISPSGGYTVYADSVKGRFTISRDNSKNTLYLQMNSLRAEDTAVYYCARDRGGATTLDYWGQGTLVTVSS VL: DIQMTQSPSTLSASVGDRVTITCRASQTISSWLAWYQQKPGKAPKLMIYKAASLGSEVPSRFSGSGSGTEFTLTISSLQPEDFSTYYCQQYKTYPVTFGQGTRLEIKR
1.4

Numbers sourced from patent US20110262446A1.
